Experiment: Stability of CYZ in plasma (short-term room temperature and freeze-thaw)
Format: in vitro ADME, human
Settings: rat plasma, 800 ng/mL, three freeze thaw cycle
parameter measured: remaining at 800 ng/mL (%)
Write it as a number; the unit % goes unstated.

[ask] Given the entry CN1CCN(C(c2ccccc2)c2ccccc2)CC1 [CYZ, 1-benzhydryl-4-methylpiperazine] , report its measured remaining at 800 ng/mL.
[reply] 97.2

====

Assay: Stability of CYZ in plasma (short-term room temperature and freeze-thaw)
Format: in vitro ADME, human
Conditions: rat plasma, 30 ng/mL, room temperature for 6 h
parameter measured: remaining at 6 h, 30 ng/mL (%)
Write it as a number; the unit % goes unstated.

[ask] Given the entry CN1CCN(C(c2ccccc2)c2ccccc2)CC1 [CYZ, 1-benzhydryl-4-methylpiperazine] , report its measured remaining at 6 h, 30 ng/mL.
[reply] 97
